- systemUnderTest: Aβ1-42 polypeptide (human)
- Sequence (peptide, as listed by the source): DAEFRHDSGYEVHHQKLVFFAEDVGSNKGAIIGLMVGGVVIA
- protocolDetails: cell-based or functional assay
endpoint: relative fluorescence intensity (ThT, Aβ polymerization; hIgG = 1.00)

• 066-4.26.14H5L1 (antibody, human IgG1, V domains shown, Humanized full-length antibody; human IgG1 heavy constant and human kappa light constant (vectors pGS003-hIgG1CH, pGS003-hIgKCL)) VH: EVQLVESGGGLVQPGGSLRLSCVASGFTFRSYAMSWVRQAPGKGLEWVASISTTSNTYYPDSVKGRFTTSRDNSKNTVYLQMSSLRAEDTAVYYCGRGVITNQAWFAYWGQGTLVTVSS VL: DIVLTQSPATLSVSPGERVTLSCRASQSISNNLHWYQQKSGQAPRLLIKYASQSISGIPSRFSGSGSGTDFTLTISSLQSEDFAVYFCQQSNSWPLTFGGGTQVEIKR = 0.68 relative to hIgG
• 066-4.26.14H2L3 (antibody, human IgG1, V domains shown, Humanized full-length antibody; human IgG1 heavy constant and human kappa light constant (vectors pGS003-hIgG1CH, pGS003-hIgKCL)) VH: EVQLVESGGGLVKPGGSLRLSCAASGFTFRSYAMSWVRQTPEKRLEWVASISTTSNTYYPDSVKGRFTTSRDNAKNSVYLQMSSLRAEDTAVYYCGRGVITNQAWFAYWGQGTTVTVSS VL: DIVLTQSPDFQSVTPKEKVTISCRASQSISNNLHWYQQKPDQSPKLLIKYASQSISGIPSRFSGSGSGTDFTLTINSLEAEDAAAYFCQQSNSWPLTFGPGTKVEIKR = 0.67 relative to hIgG
• 066-4.26.14H2L2 (antibody, human IgG1, V domains shown, Humanized full-length antibody; human IgG1 heavy constant and human kappa light constant (vectors pGS003-hIgG1CH, pGS003-hIgKCL)) VH: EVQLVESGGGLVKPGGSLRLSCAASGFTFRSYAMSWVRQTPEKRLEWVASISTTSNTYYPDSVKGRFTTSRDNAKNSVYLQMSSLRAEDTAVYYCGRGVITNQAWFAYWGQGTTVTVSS VL: DIVLTQSPATLSVSPGERATLSCRASQSISNNLHWYQQKPGQAPRLLIKYASQSISGIPARFSGSGSGTDFTLTISSLQSEDFAVYFCQQSNSWPLTFGGGTKVEIKR = 0.62 relative to hIgG

Source listed as patent US20220242936A1.
